Listing of entries alongside the reported IC50.
# System: A-2780 (ovarian) cancer cells
# testSummary: In vitro cytotoxicity assessment (MTT), A-2780
# Format: cell-based, human
# particulars: Homo sapiens, A2780; 48 h, MTT; mean of three experiments ± SD; NA: not active

{"molecule": "Cc1[nH]c(=S)[nH]c(=O)c1S(=O)(=O)Cl", "IC50, µM": 21.4}
{"molecule": "Cc1[nH]c(=S)[nH]c(=O)c1S(=O)(=O)NNC(N)=S", "IC50, µM": 16.8}
{"molecule": "Cc1[nH]c(=S)[nH]c(=O)c1S(=O)(=O)NNC(=O)c1ccccc1Cl", "IC50, µM": 7.95}
{"molecule": "Cc1[nH]c(=S)[nH]c(=O)c1S(=O)(=O)Nc1ccccc1", "IC50, µM": 17.7}
{"molecule": "CC(=O)c1cccc(NS(=O)(=O)c2c(C)[nH]c(=S)[nH]c2=O)c1", "IC50, µM": 11.7}
{"molecule": "Cc1[nH]c(=S)[nH]c(=O)c1S(=O)(=O)Nc1cccc(C(=O)C=Cc2ccc(Cl)cc2)c1", "IC50, µM": 12.5}
{"molecule": "O=c1[nH]cc(F)c(=O)[nH]1 [Compound 5-FU, 5-fluorouracil, reference compound]", "IC50, µM": 3.92}
{"molecule": "Cc1[nH]c(=S)[nH]c(=O)c1S(=O)(=O)Nc1cccc(C(=O)C=Cc2ccc([N+](=O)[O-])cc2)c1", "IC50, µM": 11.1}
{"molecule": "Cc1[nH]c(=S)[nH]c(=O)c1S(=O)(=O)NNC(=O)c1ccc(Cl)cc1", "IC50, µM": 11.9}
{"molecule": "Cc1[nH]c(=S)[nH]c(=O)c1S(=O)(=O)NNc1ccccc1", "IC50, µM": 16.4}
{"molecule": "Cc1[nH]c(=S)[nH]c(=O)c1S(=O)(=O)Nc1ccc([N+](=O)[O-])cc1", "IC50, µM": 10.2}
{"molecule": "Cc1[nH]c(=S)[nH]c(=O)c1S(=O)(=O)Nc1cccc(Cl)c1Cl", "IC50, µM": 2.52}
{"molecule": "COc1ccc(NS(=O)(=O)c2c(C)[nH]c(=S)[nH]c2=O)cc1", "IC50, µM": 2.56}
{"molecule": "Cc1[nH]c(=S)[nH]c(=O)c1S(=O)(=O)Nc1cccc(C(=O)C=Cc2ccc(Br)cc2)c1", "IC50, µM": 6.1}
{"molecule": "Cc1ccc(NS(=O)(=O)c2c(C)[nH]c(=S)[nH]c2=O)cc1", "IC50, µM": 14}
{"molecule": "Cc1[nH]c(=S)[nH]c(=O)c1S(=O)(=O)Nc1ccc(Br)cc1", "IC50, µM": 1.62}
{"molecule": "Cc1[nH]c(=S)[nH]c(=O)c1S(=O)(=O)NNc1ccc([N+](=O)[O-])cc1[N+](=O)[O-]", "IC50, µM": 8.57}
{"molecule": "Cc1[nH]c(=S)[nH]c(=O)c1S(=O)(=O)NNC(=O)c1ccc(Br)cc1", "IC50, µM": 8.16}

----------
# System: WI38 normal cells
# testSummary: In vitro cytotoxicity assessment (MTT), normal cells
# Format: cell-based
# particulars: WI-38; normal human cell line WI38, MTT

{"molecularString": "CC(=O)c1cccc(NS(=O)(=O)c2c(C)[nH]c(=S)[nH]c2=O)c1", "IC50 [µM]": 74.4}
{"molecularString": "Cc1[nH]c(=S)[nH]c(=O)c1S(=O)(=O)Nc1cccc(Cl)c1Cl", "IC50 [µM]": 60.2}
{"molecularString": "Cc1[nH]c(=S)[nH]c(=O)c1S(=O)(=O)Nc1ccc([N+](=O)[O-])cc1", "IC50 [µM]": 65.7}
{"molecularString": "COc1ccc(NS(=O)(=O)c2c(C)[nH]c(=S)[nH]c2=O)cc1", "IC50 [µM]": 71.7}
{"molecularString": "Cc1[nH]c(=S)[nH]c(=O)c1S(=O)(=O)Nc1cccc(C(=O)C=Cc2ccc(Cl)cc2)c1", "IC50 [µM]": 83.1}
